# credit: patent US12370235B2

# Test system: Saccharomyces cerevisiae AR 400
# method: MIC, YPD broth, CDC and FDA AR Candida isolate panel
# Assay type: cell-based
# applied-conditions: Table 9 below the line: only 200 or 100 μg/mL tested; values reported as 100 are ≤100 μg/mL
Ends that are not written are not given here.
Entries and their MIC (μg/mL) Saccharomyces cerevisiae AR 400 values follow.

Worked examples follow.
- TVGGLVKWILKAVKKFA [STIP3-13, TVGGLVKWILKAVKKFA]: ≤ 100 µg/mL
- TVAGLVKWILATVKKFA [STIP3-15, TVAGLVKWILATVKKFA]: ≤ 100 µg/mL

(Q) Enter reported MIC (μg/mL) Saccharomyces cerevisiae AR 400 observed with Saccharomyces cerevisiae AR 400 for TVGGLVKWILNTVKKFA [STIP3-4, TVGGLVKWILNTVKKFA]
(A) ≤ 100 µg/mL

(Q) Enter reported MIC (μg/mL) Saccharomyces cerevisiae AR 400 observed with Saccharomyces cerevisiae AR 400 for TVRALVRWILRTVARFA [STIP3-23, TVRALVRWILRTVARFA]
(A) ≤ 100 µg/mL

(Q) Enter reported MIC (μg/mL) Saccharomyces cerevisiae AR 400 observed with Saccharomyces cerevisiae AR 400 for TVGGLVKWILDVVKKFA [STIP3-9, TVGGLVKWILDVVKKFA]
(A) ≤ 100 µg/mL
